Protein target, amino acids: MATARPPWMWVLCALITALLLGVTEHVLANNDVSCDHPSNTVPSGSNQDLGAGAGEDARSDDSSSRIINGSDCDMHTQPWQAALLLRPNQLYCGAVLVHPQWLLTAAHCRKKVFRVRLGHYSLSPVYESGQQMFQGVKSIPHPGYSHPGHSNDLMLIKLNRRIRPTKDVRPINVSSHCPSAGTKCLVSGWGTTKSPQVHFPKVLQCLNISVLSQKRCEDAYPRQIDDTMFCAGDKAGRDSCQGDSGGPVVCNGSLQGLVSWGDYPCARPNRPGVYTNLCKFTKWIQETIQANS
reportedEndpoint: Ki (nM)

COC(=O)[C@H](Cc1ccccc1)NC(=O)C[C@H](O)[C@H](Cc1ccccc1)NC(=O)OC(C)(C)C = 120
COC(=O)[C@@H](NC(=O)C[C@H](O)[C@H](Cc1ccccc1)NC(=O)OC(C)(C)C)C(C)C = 130
COC(=O)[C@@H]1CCCN1C(=O)C[C@H](O)[C@H](Cc1ccccc1)NC(=O)OC(C)(C)C = 130
